B1: Azoarcus group I ribozyme (parent)
chain: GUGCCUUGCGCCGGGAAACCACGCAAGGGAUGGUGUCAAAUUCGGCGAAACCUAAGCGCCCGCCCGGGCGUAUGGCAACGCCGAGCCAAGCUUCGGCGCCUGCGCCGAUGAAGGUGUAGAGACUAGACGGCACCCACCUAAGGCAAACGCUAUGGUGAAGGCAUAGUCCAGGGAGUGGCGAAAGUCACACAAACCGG

# Variants of: B1
# assaySummary: reverse-splicing fitness (ratio to wild type); higher = more active; in vitro selection; Mg2+ level not given
I'd be grateful if you could share measured reverse-splicing fitness for these entries.
Numbers only.

Required: reverse-splicing fitness, one value per variant below.
1. C82G A111U A145G C150U C169A
2. C82G C150A U176C
3. C82G A111C A120U C150A C169U U176A
4. C82G A111U
5. C82U A111U A120U C150A C169A U176A
6. A111C A120G A145C C150U C169A U176G

### Response
[0.0114, 0.0447, 0.00691, 0.387, 0.00372, 0.00455]

Required: reverse-splicing fitness, one value per variant below.
1. C82U A111G A120U A145C C169G U176A
2. C82G A120C A145U
3. C82G A111C C150A C169A U176C
4. A111G A120C A145G C150A

### Response
1: 0.00218; 2: 0.21; 3: 0.0158; 4: 0.166

Required: reverse-splicing fitness, one value per variant below.
1. C82G A111U A120C C150G C169A U176A
2. A120G A145C C150G C169U U176G
3. A120C C150G C169U U176G
4. A111C A145C C150A C169G U176G

### Response
[0.0137, 0.00576, 0.00544, 0.00627]

Required: reverse-splicing fitness, one value per variant below.
1. A111U A120G C150G C169U
2. C82A A145U C150G C169U U176G

### Response
1: 0.019; 2: 0.00595

Required: reverse-splicing fitness, one value per variant below.
1. C82U A111U C150A C169U
2. A111C A120G A145G C150A
3. C82A A111U A145C C150U C169A U176C

### Response
1. 0.0133
2. 0.0307
3. 0.00736
